Assay: chemical genetic growth profiling, strain panel (AID 1159580);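 also: tested at 20 µM; growth read once vehicle control cultures reached saturation at 30 °C; 1 = growth at the plate median or of vehicle wells; lower values mean less growth of the strain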
Conditions: S. cerevisiae deletion strains, growth OD, locus YGR252W, strain gcn5, stronger effect = lower value
Screen size: about 5,500 compounds; about 2,000 (36%) were called active. Another 18% or so got no clear call; they are omitted. Some of the results follow.
measured parameter: normalized growth
Lab note: record the figure alone, no unit after it.

Below: 2 compounds and their reported normalized growth.
Asked: // fetch normalized growth given entry COc1c(O)cc(O)cc1O
Given back: 0.997

Asked: // fetch normalized growth given entry CCS(=O)(=O)CCn1c([N+](=O)[O-])cnc1C
Given back: 1.01

---
Asked: // fetch normalized growth given entry COc1cc(O)c(C)c(O)c1
Given back: 0.973

Asked: // fetch normalized growth given entry CC(=O)OC1CCC23C(=O)OC45CCC(C6=CC(=O)OC6)C4(C)CCC2C5CCC3(O)C1 (centres undefined)
Given back: 1

----------
Test: chemical genetic growth profiling, strain panel (AID 1159580);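 also: tested at 20 µM; growth read once vehicle control cultures reached saturation at 30 °C; 1 = growth at the plate median or of vehicle wells; lower values mean less growth of the strain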
Conditions: S. cerevisiae deletion strains, growth OD, locus YOL012C, strain htz1
Screen size: about 5,500 compounds; about 2,000 (36%) were called active. Another 18% or so got no clear call; they are omitted. The list shows a part of the results.
measured parameter: normalized growth
Lab note: record the figure alone, no unit after it.

Below: 3 compounds and their reported normalized growth.
Asked: // fetch normalized growth given entry CN1Cc2c(N)cccc2C(c2ccccc2)C1 (centres undefined)
Given back: 0.779

Asked: // fetch normalized growth given entry Fc1ccc(C(c2ccc(F)cc2)N2CCN(C/C=C/c3ccccc3)CC2)cc1
Given back: 1.09

Asked: // fetch normalized growth given entry O=c1[nH]c2ccccc2n1C1CCN(CCCC(c2ccc(F)cc2)c2ccc(F)cc2)CC1
Given back: 0.998

Here is another compound to look at.
Asked: // fetch normalized growth given entry CCOc1ccc(Cc2nccc3cc(OCC)c(OCC)cc23)cc1OCC
Given back: 1.53

----------
Assay: chemical genetic growth profiling, strain panel (AID 1159580);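 also: tested at 20 µM; growth read once vehicle control cultures reached saturation at 30 °C; 1 = growth at the plate median or of vehicle wells; lower values mean less growth of the strain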
Details: S. cerevisiae deletion strains, growth OD, locus YLR371W, strain rom2, stronger effect = lower value
About 2,000 (36%) of roughly 5,500 compounds were called active. Another 18% or so got no clear call; they are omitted. Some of the results follow.
measured parameter: normalized growth
Lab note: record the figure alone, no unit after it.

Below: 8 compounds and their reported normalized growth.
Asked: // fetch normalized growth given entry C[C@]12C=CC(=O)C=C1CCC1C2CC[C@]2(C)C(=O)CCC12 (stereo partly specified)
Given back: 0.993

Asked: // fetch normalized growth given entry COc1c2c(cc3occ(-c4ccc5c(c4)OCO5)c(=O)c13)OC(C)(C)C=C2
Given back: 0.944

Asked: // fetch normalized growth given entry Cc1ncc([N+](=O)[O-])n1CCO
Given back: 0.975

Asked: // fetch normalized growth given entry COc1cc(O)c(C)c(O)c1
Given back: 1.01

Asked: // fetch normalized growth given entry CC1(C)C[C@@H]2C(=O)CC[C@H]3O[C@]3(C)CC[C@H]21
Given back: 0.998

Asked: // fetch normalized growth given entry CC1(C)S[C@@H]2[C@H](NC(=O)COc3ccccc3)C(=O)N2[C@H]1C(=O)O
Given back: 1.02

Asked: // fetch normalized growth given entry CC(C)=CCC1=C(O)c2ccccc2C(=O)C1=O
Given back: 0.939

Asked: // fetch normalized growth given entry C[C@]12C=CC(=O)C=C1CCC1C2C(=O)C[C@@]2(C)C1CC[C@]2(O)C(=O)CO (stereo partly specified)
Given back: 0.974

---
Asked: // fetch normalized growth given entry COc1ccc2c(=O)c(CC(=O)O)coc2c1
Given back: 0.997

Asked: // fetch normalized growth given entry CCOC(=O)C1=C(C)NC(C)=C(C(=O)OC)C1c1cccc([N+](=O)[O-])c1 (stereo unspecified)
Given back: 1.01

Asked: // fetch normalized growth given entry CCN(CC)CCNC(=O)COc1ccc(OC)cc1
Given back: 0.99

Asked: // fetch normalized growth given entry Cc1cc(O)c2c(c1O)C(=O)c1c(O)cc(C)c(O)c1C2=O
Given back: 1

Where do these numbers come from? They come from PubChem BioAssay AID1159580.
